Exercise: for every item that follows, state its recorded pKd.
# assayed target: SNX27 PDZ (amino acids 740–141) (human, UniProt Q96L92 43-136)
# run description: fluorescence polarisation
# condition summary: both partners purified
pKd: −log10 of the molar value. No end group written: not given here.

Which value of pKd has been reported for NSSRVPDLLV (also: FITC-labeled, also called peptide from the E protein) [FITC-labeled peptide of the C-terminus of the SARS-CoV-2 E protein (E66-77)] in the records?
< 3.40

Now the binder EPTTTTSVPL (also: FITC-labeled) [FITC-labeled peptide of the C-terminus of SARS-CoV-2 ORF3a (ORF3A 266-275)]
< 3.40

Measured values drawn from paper PMC9610207 for this set.
